Molecular target: T1, C-terminally 6x Histidine-tagged Beta-Catenin (aa 134-668, 59 KD) (UniProt P35222 134-668)
T1 construct: range 134-668; Armadillo repeat region
T1 sequence: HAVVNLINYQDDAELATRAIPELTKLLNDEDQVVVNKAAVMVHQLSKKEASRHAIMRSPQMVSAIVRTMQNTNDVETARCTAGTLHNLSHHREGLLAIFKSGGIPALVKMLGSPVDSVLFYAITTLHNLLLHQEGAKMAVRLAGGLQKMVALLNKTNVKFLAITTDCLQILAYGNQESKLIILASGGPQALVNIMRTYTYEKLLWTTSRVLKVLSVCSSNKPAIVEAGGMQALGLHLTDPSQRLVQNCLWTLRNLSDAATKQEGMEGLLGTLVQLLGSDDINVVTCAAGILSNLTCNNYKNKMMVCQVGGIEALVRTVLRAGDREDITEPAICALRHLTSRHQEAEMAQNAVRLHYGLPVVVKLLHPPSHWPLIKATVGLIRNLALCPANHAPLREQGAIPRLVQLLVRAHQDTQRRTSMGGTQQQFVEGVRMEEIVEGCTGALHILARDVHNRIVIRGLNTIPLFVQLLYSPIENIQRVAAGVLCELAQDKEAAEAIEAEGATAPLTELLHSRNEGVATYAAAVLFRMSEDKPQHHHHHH
Test: competitive fluorescence polarization, FAM-labelled linear probe as competitor, His-tagged beta-catenin 134-668
pIC50: −log10 of the molar value. Bridges are numbered along the chain shown (N, C = ends). [ ]: non-standard residue; d: D form. S5 = C=CCCC[C@](C)(N)C(=O)O
measurementType: pIC50

Give me measured pIC50, please, for this binder: Ac-RNLA[S5]VKS[S5]LVNES-NH2 (staple 5-9; SMILES CC(=O)N[C@@H](CCCNC(=N)N)C(=O)N[C@@H](CC(N)=O)C(=O)N[C@@H](CC(C)C)C(=O)N[C@@H](C)C(=O)N[C@@]1(C)CCCC=CCCC[C@@](C)(C(=O)N[C@@H](CC(C)C)C(=O)N[C@H](C(=O)N[C@@H](CC(N)=O)C(=O)N[C@@H](CCC(=O)O)C(=O)N[C@@H](CO)C(N)=O)C(C)C)NC(=O)[C@H](CO)NC(=O)[C@H](CCCCN)NC(=O)[C@H](C(C)C)NC1=O, also called Ac-RNLA$VKS$LVNES-NH2) [SP3]
≤ 4.00
